- Tested on: NCI/ADR-RES complex spheroid viability
- Assay Comment: Anticancer human tumor NCI/ADR-RES cell line growth inhibition;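 also: spheroids exposed to compounds for 7 days; 100% = DMSO vehicle treated spheroids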
- Condition Details: second compound 0.316 µM; first compound 3.16 µM; stronger effect = lower value
viability, T/C overview

- Molecule: "CC1(C)CCC(CN2CCN(c3ccc(C(=O)NS(=O)(=O)c4ccc(NCC5CCOCC5)c([N+](=O)[O-])c4)c(Oc4cnc5[nH]ccc5c4)c3)CC2)=C(c2ccc(Cl)cc2)C1 + NC1CCC(NC2CC2c2ccccc2)CC1"
  viability, T/C / %: 103
- Molecule: "CC(C)c1c(-c2ccccc2)nc2c(C#N)c[nH]n2c1=O + NC1CCC(NC2CC2c2ccccc2)CC1"
  viability, T/C / %: 103
- Molecule: "CC1COCCN1c1cc(C2(S(C)(=N)=O)CC2)nc(-c2ccnc3[nH]ccc23)n1 (stereo unspecified) + NC1CCC(NC2CC2c2ccccc2)CC1"
  viability, T/C / %: 71.8
- Molecule: "COc1ccc([C@@H](O)c2cc(-c3ncnc4cc(N5CCOCC5)ccc34)c(F)cc2Cl)nn1 + NC1CC1c1ccc(-c2cccc(O)c2)cc1"
  viability, T/C / %: 51.4
- Molecule: "CC1(C)CCC(CN2CCN(c3ccc(C(=O)NS(=O)(=O)c4ccc(NCC5CCOCC5)c([N+](=O)[O-])c4)c(Oc4cnc5[nH]ccc5c4)c3)CC2)=C(c2ccc(Cl)cc2)C1 + NC1CC1c1ccc(-c2cccc(O)c2)cc1"
  viability, T/C / %: 103
- Molecule: "COc1ccc([C@@H](O)c2cc(-c3ncnc4cc(N5CCOCC5)ccc34)c(F)cc2Cl)nn1 + NC1CCC(NC2CC2c2ccccc2)CC1"
  viability, T/C / %: 53.5
